Target: SRPK1 (Homo sapiens, UniProt Q96SB4)
Sequence (Q96SB4 whole entry): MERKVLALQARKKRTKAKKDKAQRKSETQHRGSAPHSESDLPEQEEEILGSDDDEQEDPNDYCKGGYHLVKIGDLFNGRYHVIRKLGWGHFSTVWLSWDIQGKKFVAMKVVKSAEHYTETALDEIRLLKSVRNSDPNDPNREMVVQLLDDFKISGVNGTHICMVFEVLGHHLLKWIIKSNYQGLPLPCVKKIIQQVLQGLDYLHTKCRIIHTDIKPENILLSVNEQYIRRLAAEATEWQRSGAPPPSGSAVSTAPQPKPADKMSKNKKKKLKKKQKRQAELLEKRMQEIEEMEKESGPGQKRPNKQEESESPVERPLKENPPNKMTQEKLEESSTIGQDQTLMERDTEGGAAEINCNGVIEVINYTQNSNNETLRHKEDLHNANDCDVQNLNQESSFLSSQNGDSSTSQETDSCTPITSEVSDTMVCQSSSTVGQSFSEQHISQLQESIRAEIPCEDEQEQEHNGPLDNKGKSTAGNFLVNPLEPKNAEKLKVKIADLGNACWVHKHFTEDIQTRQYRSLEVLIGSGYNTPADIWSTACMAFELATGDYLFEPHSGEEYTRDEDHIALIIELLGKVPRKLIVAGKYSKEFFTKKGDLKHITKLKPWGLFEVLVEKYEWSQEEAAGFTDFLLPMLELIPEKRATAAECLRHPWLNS
Experiment: SRPK1 assay, Method 1 (ADP-Glo luminescence)
Type: biochemical
Conditions: Method 1 (no asterisk): substrate Human SRSF1/SF2, 25° C. for 90 min, test compounds 30 μM top, 3-fold, duplicate
assay-readout: IC50 (nM)
Your answer should be a plain number; it is taken to be in nM.

# count of solved cases: 6
O=C(Nc1cc(C(F)(F)F)cnc1N1CCCC(O)CC1)c1ccc(C2CCOCC2)o1 (centres unmarked) [Compound 031] | 360
O=C(Nc1cc(C(F)(F)F)cnc1N1CCC(O)(C(F)(F)F)CC1)c1ccc(C2CCOCC2)o1 [Compound 069] | 63.7
O=C(Nc1cc(C(F)(F)F)cnc1N1CCCC(O)C1)c1ccc(C2CCOCC2)o1 (centres unmarked) [Compound 072] | 754
O=C(Nc1cc(C(F)(F)F)cnc1N1CCN(Cc2ccccn2)CC1)c1ccc(C2CCOCC2)o1 [Compound 002] | 309
C[C@@H]1C[C@H](O)CCN1c1ncc(C(F)(F)F)cc1NC(=O)c1ccc(-c2cn[nH]c2)o1 [Compound 110] | 16.1
CN1CCN(c2ncc(C(F)(F)F)cc2NC(=O)c2ccc(-c3ccncc3)o2)CC1 [Compound 003] | 971

// next item, IC50 requested
Just so you know, measured IC50 for Nc1n[nH]cc1-c1ccc(C(=O)Nc2cc(C(F)(F)F)cnc2N2CCC(O)CC2)o1 [Compound 106] came out at 142

----------
Target: SRPK1 (Homo sapiens, UniProt Q96SB4)
Test: SRPK1 assay, Method 1 (ADP-Glo luminescence)
Type: biochemical
Conditions: Method 1 (no asterisk): substrate Human SRSF1/SF2, 25° C. for 90 min, test compounds 30 μM top, 3-fold, duplicate
log10(IC50) for assorted compounds
Heads up: the numbers are on a log10 scale; they represent IC50 in nM.

C[C@@H]1C[C@@H](O)CCN1c1ncc(C(F)(F)F)cc1NC(=O)c1ccc(Br)o1 [Compound 107] | 2.87
O=C1CC2(CCN(c3ncc(C(F)(F)F)cc3NC(=O)c3ccc(C4CCOCC4)o3)CC2)C1 [Compound 065] | 2.31
COC(=O)C1(C)CCN(c2ncc(C(F)(F)F)cc2NC(=O)c2ccc(C3CCOCC3)o2)CC1 [Compound 032] | 2.06
C[C@@H]1C[C@H](O)CCN1c1ncc(C(F)(F)F)cc1NC(=O)c1ccc(-c2ccnc(N)c2)o1 [Compound 111] | 1.60
CC1C[C@@H](O)CCN1c1ncc(C(F)(F)F)cc1NC(=O)c1ccc(-c2ccncc2)o1 (stereo in doubt) [Compound 080] | 2.54

The compound listed as CC1(O)CCN(c2ncc(C3CC3)cc2NC(=O)c2ccc(C3CCOCC3)o2)CC1 [Compound 137] has a reported log10(IC50) of 2.32

For this compound ( O=C(Nc1cc(C(F)(F)F)cnc1N1CCC(CO)CC1)c1ccc(C2CCOCC2)o1 [Compound 083] ), measured log10(IC50) is 1.60

log10(IC50) recorded for this compound, O=C(Nc1cc(C(F)(F)F)cnc1N1CCC(O)CC1)c1ccc(-c2ccnnc2)o1 [Compound 050] , is 2.64

For O=C(Nc1cc(C(F)(F)F)cnc1N1CCC(CO)C1)c1ccc(C2CCOCC2)o1 (stereo not drawn) [Compound 038] the compound record lists log10(IC50) as 4.39

// log10(IC50) value for CC1C[C@@H](O)CCN1c1ncc(C(F)(F)F)cc1NC(=O)c1ccc(-c2ccncc2)o1 (stereo in doubt) [Compound 079] : 2.01

Values were extracted from patent US20260217693A1.
